- Protocol Details: Encapsulation efficiency of RNA (QUANT-IT RIBOGREEN RNA assay)
- Format: physicochemical
- Test Conditions: Table 1B; formulated with hEPO mRNA
Readings of EE (%) for the listed compounds
Entry rule: numbers only, all in %.

Past entries and their recorded results:
What does the data say about its EE (%)? Entry: CCCCCCCCCOC(=O)CCCCCCCN(CCCCCCCC(=O)OC(CCCCCCCC)CCCCCCCC)CCCNS(C)(=O)=O [Compound 109]
98.29

CCCCCCCCC(C)OC(=O)CCCCCN(CCO)CCCCCCCC(=O)OC(CCCCCCCC)CCCCCCCC (centres unmarked) [Compound 122] ?
96.27

CCCCCCCCCOC(=O)CCCCCCCN(CCCCCCCC(=O)OC(CCCCCCCC)CCCCCCCC)CCCC(=O)NC [Compound 239] ?
82.6

CCCCCCCCCOC(=O)CCCCCCCN(CCCCCCCC(=O)OC(CCCCCCCC)CCCCCCCC)CCCNC(=O)N(C)C [Compound 110] ?
92.39

CCCCCCCCCOC(=O)CCCCCCCN(CCO)CCCCCCCCCC(=O)OC(CCCCCC)CCCCCC [Compound 147] ?
91.0

Next:
What does the data say about its EE (%)? Entry: CCCCC/C=C\C/C=C\CCCCCCCCC(CCCCCCCC/C=C\C/C=C\CCCCC)OC(=O)CCCN(C)C [MC3, DLin-MC3-DMA, reference compound]
99.01

CCCCCCCCCOC(=O)CCCCCCCN(CCCCCCCC(=O)OC(CCCCCCCC)CCCCCCCC)CCCNC(C)=O [Compound 108] ?
95.38

CCCCCCCCCOC(=O)CCCCCCCN(CCCCCCCC(=O)OC(CCCCCCCC)CCCCCCCC)CCCNC(=S)N(C)C [Compound 111] ?
91.23

* * *

Readings of Cmax for the listed molecules
- Protocol Details: Pharmacokinetics of lipids in mice
- Format: in vivo
- Test Conditions: Plasma, mouse
Entry rule: numbers only, all in ng/mL.

What does the data say about its Cmax? Entry: `CCCCCCCCCOC(=O)CCCCCCCN(CCO)CCCCCCCC(=O)OC(CCCCCCCC)CCCCCCCC`
44200

Then there is this molecule:
What does the data say about its Cmax? Entry: `CCCCCCCCCCCOC(=O)CCCCCN(CCO)CCCCCCCC(=O)OC(CCCCCCCC)CCCCCCCC`
37500

* * *

- Protocol Details: Lipid clearance: lipid level in mouse liver tissue (LC-MS/MS)
- Type: in vivo
- Test Conditions: Table 3E; mouse liver, 6 h
Property Name: % Remaining dose at 6 h (%)
Entry rule: numbers only, all in %.

Past entries and their recorded results:
What does the data say about its % Remaining dose at 6 h? Entry: CCCCCCCCC(CCCCCCCC)OC(=O)CCCCCCCN(CCO)CCCCCCCC(=O)O[C@H](C)CCCCCCCC [Compound 172]
17.4

CCCCCCCCCC(=O)OC(C)CCCCCCN(CCO)CCCCCCCC(=O)OC(CCCCCCCC)CCCCCCCC (stereo not shown) [Compound 98] ?
26.8

CCCCCCCCCC(C)(O)CCCCCCCCN(CCO)CCCCCCCC(=O)OC(CCCCCCCC)CCCCCCCC (stereo not shown) [Compound 171] ?
51.0

CCCCCCCCCCCOC(=O)CCCCCN(CCO)CCCCCC(=O)OC(CCCCCCCCCC)CCCCCCCCCC [Compound 185] ?
33.8

CCCCCCCCC(CCCCCCCC)C(=O)OCCCCCCCN(CCO)C(C)CCCCCCCCOC(=O)CCCCCCC (stereo not shown) [Compound 162] ?
0.283

Next:
What does the data say about its % Remaining dose at 6 h? Entry: CCCCCCCCCOC(=O)C(C)CCCCCCN(CCO)CCCCCCCOC(=O)C(CCCCCCCC)CCCCCCCC (stereo not shown) [Compound 163]
34.8

CCCCCCCCCOC(=O)CCCCCCCN(CCO)CCCCCCCC(=O)OC(CCC1CC1CCCC)CCC1CC1CCCC (stereo not shown) [Compound 160] ?
0.056
